TGT: T1, recombinant HMG1 produced in E. coli as calmodulin binding protein (CBP) fusion (human)
T1 chain: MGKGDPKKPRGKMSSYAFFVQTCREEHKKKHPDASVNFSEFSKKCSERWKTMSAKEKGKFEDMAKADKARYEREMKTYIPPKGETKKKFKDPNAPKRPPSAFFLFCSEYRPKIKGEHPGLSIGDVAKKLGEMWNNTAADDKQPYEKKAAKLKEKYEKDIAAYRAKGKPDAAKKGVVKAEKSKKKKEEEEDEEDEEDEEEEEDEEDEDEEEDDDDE
EXPERIMENT SUMMARY: cell-based or functional assay
Below: a set of entries, each annotated with reported IC50, inhibition of rHMG1 stimulated TNF-α release from human PBMCs.
Expressed in µg/mL, but write only the number.

Illustrative cases are given below, each with its answer.
anti-HMG1 antibody S16 (antibody, V domains shown, also called ATCC PTA-6259) VH: EVQLLESGGGLVQPGGSLRLSCAASGFTFSWYSMLWVRQAPGKGLEWVSYISPSGGFTNYADSVKGRFTISRDNSKNTLYLQMNSLRAEDTAVYYCARWDYNSGWYYDHWGQGTLVTVSS VL: DIQMTQSPDTLSLSPGERATLSCRASQSVNSRNLAWYQQKPGQAPRLLIYGASTRATGIPDRFSGSVSGTEFTLTISSLQPDDFATYYCQQYNSYFTFGQGTKLEIK    1.44
anti-HMG1 antibody G4 (antibody, V domains shown, also called ATCC PTA-6258) VH: EVQLLESGGGLVQPGGSLRLSCAASGFTFSWYDMTWVRQAPGKGLEWVSSISPSGGYTKYADSVKGRFTISRDNSKNTLYLQMNSLRAEDTAVYYCTTEFYDYLDVWGKGTTVTVSS VL: DIQMTQSPGTLSLSPGEGATLSCRASQSVSSTYLAWYQQKPGQAPRLLIYEASKRATGTPARFSGSGSGTDFTLSISSLEPEDFAVYYCQHRHNWPPQWTFGQGTKVEVK    5.51

Turning now to a further binder:
Q: Would you kindly share the measured IC50, inhibition of rHMG1 stimulated TNF-α release from human PBMCs for anti-HMG1 antibody S10 (antibody, V domains shown) VH: EVQLLESGGGLVQPGGSLRLSCAASGFTFSWYDMWWVRQAPGKGLEWVSWIVPSGGITAYADSVKGRFTISRDNSKNTLYLQMNSLRAEDTATYYCARGNYGPSPFDYWGQGTLVTVSS VL: DIQMTQSPGTLSLSPGERATLSCRATQSVRKNFLAWYQQKPGQAPRLLIYDASSRATGIPDRFSGSGSGTDFTLTISRLEPEDFAVYYCQQYGNSPIIFGQGTRLEIK ?
Result: 0.875

All values here come from patent US20090169546A1.
